Target: HLA-A*23:01
Assay: IEDB peptide-MHC binding, purified MHC/direct/fluorescence; filed as Kd, often an IC50 or EC50 that approximates it; bounds were set here for any values at or beyond the usual limits of such assays
Details: source organism: dengue virus type 2
propertyName: pKd
# reply with the number alone; pKd is -log10 of concentration in mol/L

IN: Can you share its pKd? I mean this sequence: WYGMEIRPL
OUT: 5.74

* * *

Target: HLA-B*51:01
Assay: IEDB peptide-MHC binding, purified MHC/competitive/radioactivity; filed as Kd, often an IC50 or EC50 that approximates it; bounds were set here for any values at or beyond the usual limits of such assays
Conditions: source organism: Dengue virus 2 Jamaica/1409/1983
propertyName: Kd (µM)
Dear colleague, please return just the value in µM, with no unit written.

IN: Hello, I am looking for reported Kd with HLA-B*51:01 for FAAGLLLRKL . Could you help?
OUT: 11.6

* * *

Molecular target: HLA-B*15:01
Assay: IEDB peptide-MHC binding, purified MHC/direct/fluorescence; filed as Kd, often an IC50 or EC50 that approximates it; bounds were set here for any values at or beyond the usual limits of such assays
Settings: source organism: Pasteurella multocida
propertyName: pKd
# reply with the number alone; pKd is -log10 of concentration in mol/L

IN: Can you share its pKd? I mean this sequence: VMLDWGIEL
OUT: 6.57

* * *

Target: HLA-B*53:01
Experiment: IEDB peptide-MHC binding, purified MHC/competitive/radioactivity; filed as Kd, often an IC50 or EC50 that approximates it; bounds were set here for any values at or beyond the usual limits of such assays
Settings: source organism: Triticum aestivum
Consider the following sequences; for each one, report its Kd.

IN: Can you share its Kd? I mean this sequence: QPFPPQQPY
OUT: ≥ 78.2 µM

IN: Item: IPCMDVVL
OUT: ≥ 41.1 µM

IN: Item: YPQPQPQY
OUT: 5.39 µM

* * *

Molecular target: HLA-B*44:02
Assay: IEDB peptide-MHC binding, purified MHC/direct/fluorescence; filed as Kd, often an IC50 or EC50 that approximates it; bounds were set here for any values at or beyond the usual limits of such assays
Conditions: source organism: West Nile virus
pKd: −log10 of the molar value.
Consider the following sequences; for each one, report its pKd.

IN: Can you share its pKd? I mean this sequence: AHYEEDVNL
OUT: ≤ 4.70

IN: Item: YTMDGEYRL
OUT: ≤ 4.70

* * *

Target: HLA-A*02:16
Test: IEDB peptide-MHC binding, purified MHC/competitive/fluorescence; filed as Kd, often an IC50 or EC50 that approximates it; bounds were set here for any values at or beyond the usual limits of such assays
Conditions: source organism: Rickettsia sibirica 246
propertyName: Kd

IN: Hello, I am looking for reported Kd with HLA-A*02:16 for AMYDPQTYY . Could you help?
OUT: ≥ 20 µM

* * *

Molecular target: HLA-B*18:01
Test: IEDB peptide-MHC binding, purified MHC/direct/fluorescence; filed as Kd, often an IC50 or EC50 that approximates it; bounds were set here for any values at or beyond the usual limits of such assays
Details: source organism: Bacillus anthracis
propertyName: Kd

IN: Can you share its Kd? I mean this sequence: PRFGSCYFL
OUT: ≥ 20 µM

* * *

Molecular target: HLA-B*18:01
Experiment: IEDB peptide-MHC binding, purified MHC/direct/fluorescence; filed as Kd, often an IC50 or EC50 that approximates it; bounds were set here for any values at or beyond the usual limits of such assays
Details: source organism: West Nile virus
Consider the following sequences; for each one, report its pKd.
# reply with the number alone; pKd is -log10 of concentration in mol/L

IN: Can you share its pKd? I mean this sequence: REWFMDLNL
OUT: 5.87

IN: Item: EERKNFLEL
OUT: 7.32

IN: Item: MEEPAPAGF
OUT: 7.70

* * *

Target: HLA-B*07:02
Experiment: IEDB peptide-MHC binding, purified MHC/competitive/radioactivity; filed as Kd, often an IC50 or EC50 that approximates it; bounds were set here for any values at or beyond the usual limits of such assays
Settings: source organism: Mammarenavirus whitewaterense
propertyName: pKd
# reply with the number alone; pKd is -log10 of concentration in mol/L

IN: Can you share its pKd? I mean this sequence: GPFEASWAI
OUT: 6.39

* * *

Target: HLA-B*27:05
Assay: IEDB peptide-MHC binding, purified MHC/competitive/fluorescence; filed as Kd, often an IC50 or EC50 that approximates it; bounds were set here for any values at or beyond the usual limits of such assays
Conditions: source organism: Escherichia coli 536
propertyName: Kd

IN: Can you share its Kd? I mean this sequence: YQAENSTAE
OUT: ≥ 5 µM

* * *

Target: HLA-A*32:01
Assay: IEDB peptide-MHC binding, purified MHC/competitive/radioactivity; filed as Kd, often an IC50 or EC50 that approximates it; bounds were set here for any values at or beyond the usual limits of such assays
Conditions: source organism: Mammarenavirus lassaense
propertyName: Kd (µM)
Dear colleague, please return just the value in µM, with no unit written.

IN: Can you share its Kd? I mean this sequence: KTGECSKCY
OUT: 6.79

* * *

Biological target: HLA-A*03:01
Experiment: IEDB peptide-MHC binding, purified MHC/competitive/fluorescence; bounds were set here for any values at or beyond the usual limits of such assays
Conditions: source organism: Vaccinia virus Copenhagen
propertyName: IC50 (µM)
Dear colleague, please return just the value in µM, with no unit written.

IN: Can you share its IC50? I mean this sequence: FYRSGTETK
OUT: 64.2

* * *

Target: HLA-A*31:01
Assay: IEDB peptide-MHC binding, purified MHC/direct/fluorescence; filed as Kd, often an IC50 or EC50 that approximates it; bounds were set here for any values at or beyond the usual limits of such assays
Conditions: source organism: Bacillus anthracis
pKd: −log10 of the molar value.
propertyName: pKd

IN: Can you share its pKd? I mean this sequence: PRFGSCYFL
OUT: ≤ 4.70

* * *

Biological target: HLA-A*26:01
Experiment: IEDB peptide-MHC binding, purified MHC/direct/fluorescence; filed as Kd, often an IC50 or EC50 that approximates it; bounds were set here for any values at or beyond the usual limits of such assays
Conditions: source organism: Campylobacter jejuni RM1221
propertyName: Kd

IN: Can you share its Kd? I mean this sequence: KNDAVYIGY
OUT: ≥ 20 µM

* * *

Molecular target: HLA-B*39:01
Assay: IEDB peptide-MHC binding, purified MHC/direct/fluorescence; filed as Kd, often an IC50 or EC50 that approximates it; bounds were set here for any values at or beyond the usual limits of such assays
Conditions: source organism: Variola virus
propertyName: Kd

IN: Can you share its Kd? I mean this sequence: YTDLTYQSF
OUT: ≥ 20 µM

* * *

Target: HLA-A*02:01
Test: IEDB peptide-MHC binding, purified MHC/competitive/fluorescence; bounds were set here for any values at or beyond the usual limits of such assays
Conditions: source organism: Zaire ebolavirus
propertyName: IC50

IN: Hello, I am looking for reported IC50 with HLA-A*02:01 for SFTVVSNGA . Could you help?
OUT: ≥ 372 µM

IN: Item: TLAGVNVGE
OUT: ≥ 211 µM

IN: Item: LITGGRRTR
OUT: ≥ 111 µM

IN: Item: IQAFEAGVD
OUT: ≥ 210 µM

IN: Item: GLLIVKTVL
OUT: 0.294 µM

IN: Item: TTQDEGAAI
OUT: ≥ 220 µM

IN: Item: QQFYWPVMN
OUT: 8 µM

IN: Item: GLMHNQDGL
OUT: 1.58 µM

IN: Item: WQSVGHMMV
OUT: 1.54 µM

IN: Item: FDAVLYYHM
OUT: ≥ 309 µM

IN: Item: ATISTSPQS
OUT: ≥ 108 µM

* * *

Target: HLA-A*02:03
Assay: IEDB peptide-MHC binding, purified MHC/competitive/fluorescence; filed as Kd, often an IC50 or EC50 that approximates it; bounds were set here for any values at or beyond the usual limits of such assays
Settings: source organism: Francisella tularensis subsp. tularensis FSC198
propertyName: Kd

IN: Can you share its Kd? I mean this sequence: RSFPEWDYI
OUT: ≥ 20 µM

* * *

Consider the following sequences; for each one, report its pKd.
Molecular target: HLA-B*57:01
Experiment: IEDB peptide-MHC binding, purified MHC/competitive/fluorescence; filed as Kd, often an IC50 or EC50 that approximates it; bounds were set here for any values at or beyond the usual limits of such assays
Conditions: source organism: Homo sapiens
pKd: −log10 of the molar value.

IN: Can you share its pKd? I mean this sequence: WMFRIRIIL
OUT: ≤ 4.70

IN: Item: LMQCWQLLA
OUT: ≤ 4.70

IN: Item: LLAMTFWPA
OUT: ≤ 4.70

* * *

Molecular target: HLA-A*02:17
Experiment: IEDB peptide-MHC binding, purified MHC/competitive/radioactivity; filed as Kd, often an IC50 or EC50 that approximates it; bounds were set here for any values at or beyond the usual limits of such assays
Details: source organism: Dengue virus 4 Dominica/814669/1981
propertyName: Kd (nM)
Dear colleague, please return just the value in nM, with no unit written.

IN: Can you share its Kd? I mean this sequence: TLLCLIPTV
OUT: 151

Values compiled from the Immune Epitope Database (IEDB).
